Test system: C. albicans opt5Δ
protocolText: Initial peptide uptake rate
Assay type: cell-based, Candida albicans
assayConditions: 50 mM potassium phosphate buffer (pH 5.0 or 6.5) + 1% glucose, 30°C, 100 μM peptide, TNBS A420, slope 0- to 10-min
Where a SMILES comes first, the peptide text is derived from it.
reportedEndpoint: Uptake rate ± SD

Could you please provide reported Uptake rate ± SD for CC(C)[C@H](NC(=O)[C@H](Cc1c[nH]c2ccccc12)NC(=O)[C@H](Cc1ccccc1)NC(=O)[C@@H](NC(=O)[C@@H](NC(=O)[C@H](CCCCN)NC(=O)[C@@H](N)CCCCN)C(C)C)C(C)C)C(=O)N[C@@H](CCCCN)C(=O)N[C@@H](Cc1ccccc1)C(=O)N[C@@H](CCCCN)C(=O)O [Peptide P10, Lys-Lys-Val-Val-Phe-Trp-Val-Lys-Phe-Lys] (H-KKVVFWVKFK-OH) ? Thanks!
<0.1 nmol min^-1 (mg dry weight)^-1
